ASSAY OVERVIEW: soluble on expression in E. coli; label from the status in PepcDB or PDB records
MEASURED ENDPOINT: soluble on expression in E. coli

# count of solved cases: 5
# MACROMOLECULE SEQUENCE, MEASURED ENDPOINT, READING
data = [
    ("MECLKAEFFSPIALFKTPFSIKGIETYPLPPYSTVIGLLYTASGKKWKGERFNISVQGDYEAIFRDYVRFRKYNKKDKKLETLPLEVPLFYNFRLTVHILGDENLLKEFEKALKFPYVFPYLSGGEYPVKITKVKMVACRKEYFDTFNIPKNAYIPENIFTEEFRVSLEGHGVYYRVPSFLISQKPRQHEWVGVYYVQKGTKVSEMELLVDEEGEPVWV", "soluble on expression in E. coli", "soluble"),
    ("MSLAWLISEFASVGDVTVRALRYYDKINLLKPSDYTEGGHRLYTKDDLYVLQQIQSFKHLGFSLGEIQNIILQRDIETEVFLRQMHFQREVLLAEQERIAKVLSHMDEMTKKFQKEERVNVALFSSFLQTFIWEKENKEWLEEHFSTESIQAFYNNKELKEKFDRRFMDVIGKLKKYKEEEKDPSHHDVQVTLKEFFHLIEKITDYLDISQSEVVSVIKQSKISMAEFPTLFTNEEEQYIKEAMNKEGHHHHHH", "soluble on expression in E. coli", "soluble"),
    ("SPGRSSTSSGSTRYISFSGIESALSSLKNFQSCISSGMDTVSSVALDLVETQTEVSSEYSMDKAMVEFAKMDRELSHYVKAVQSTINHVKEERPEKVPDLKLLVEKKFLALQDKNSDADFKENEKFVQFKQQLRELKKQYGIHADRENDLTEGVDEDMIVTQSQTNFICPITQLEMKKPVKNKMCGHTYEEEAIVRMIESKHKRKKKACCPKIGCSHTDMRMSDLIPDEALRRAIESHNKKKKRHSE", "soluble on expression in E. coli", "soluble"),
    ("MNPSVKIVVLSLPTATARRSQMSAMLGNTSLDWQYFDAHASLMCPNLHYDGAELRRHFGRNLSPPEIAVCSSHAAILQEFVDRNQADYILVLEDDVIFDTDFPLDQFCAFCASNGLEYVRLFGKHYAKAVHLGFFYDRSIVRFTTSPAGAQAYLMSRMAARRFLDSYQSIRATVDLAMDSFWITQLPIYSIFPYPIIERFSPTSIPMPPHTVEVRGLEHAIWQGARVVNKAKKILTNAKLRKSDESLRQRHWQFRQVGRVDVEQRRDPAAALEHHHHHH", "soluble on expression in E. coli", "soluble"),
    ("PRERVSRVHASSGTTGKPTVVGYTARDLDNWANLVARSIRAAGGKPGDIVHVSYGYGLFTGGLGAHYGAERLGCTVVPMSGGQTEKQVQLINDFRPDIIMVTPSYYCNILEEQRRQGMDPRQSSLRIGIFGAEPWTGQMRADIEAEGGIDAVDIYGLSEVMGPGVASECVETKDGPVV", "soluble on expression in E. coli", "not soluble"),
]

As a next step, examine the sequence that follows.
Problem: soluble on expression in E. coli lookup needed for `MGSDKIHHHHHHMRRNQVAIVGAAETTKLGVIPDMSQIQLHADAALNAIADAGLKLSDIDGIATAVETPQQIAHYLGITPTWVDGTSVGGCSFMLHVRHAAAAIEAGLCKTVLITHAESGKSMIGKLPRSIPADSLQGQFEAPYGIYGPPSQFPIPVLRFMKTHGITHEQIASVAVVQREWAAKNPRAMMKDPITVADVLNSRMIAYPFRLLQCCLVTDGGGALIMTSADRAKDFPHKPVYVLGTGESVETPMVSQMETFNSSRAFKVAGPTAFREAGISHSDVDHLMIYDAFAHLPLFGLGDLGFMPYEETGKFIADGNTRPGGKLPLNTNGGGLSYMHSGMYGMYALQESVRQMRGIAPAQVPNAKISVCHGVGGMFAASGTIIFTNEK` , thanks.
Solution: not soluble
